Attribution: patent US12673120B2

assayDetails: Water solubility
Format: physicochemical
protocolConditions: decides the injection route
assayEndpoint: Water solubility

{"chemicalStructure": "N=C(CCl)NCCC[C@H](Nc1ccc([N+](=O)[O-])c2nonc12)C(=O)NCc1ccccc1", "recordedMeasurement": "had no such concerns"}
{"chemicalStructure": "N=C(CCl)NCCCC[C@H](Nc1ccc([N+](=O)[O-])c2nonc12)C(=O)NCc1ccccc1", "recordedMeasurement": "had no such concerns"}
{"chemicalStructure": "CC(C)C[C@H](Nc1ccc([N+](=O)[O-])c2nonc12)C(=O)N[C@H](C(=O)OCc1ccccc1)C(C)C", "recordedMeasurement": "poor water solubility"}
{"chemicalStructure": "N=C(NCCC[C@H](Nc1ccc([N+](=O)[O-])c2nonc12)C(=O)OCc1ccccc1)N[N+](=O)[O-]", "recordedMeasurement": "poor water solubility"}

----------
Tested on: HCT116 (human colon cancer cells)
assayDetails: In vitro anti-tumor cell proliferation activity (MTT method), HCT116
Type: cell-based
protocolConditions: HCT116; 48 h; Mean ± SD; read-out: IC50 values of in vitro anti-cell proliferation activity
pIC50: −log10 of the molar value. Structures can show the parent of a compound that is named as a salt.
Measured pIC50 of individual entries

Endpoint output: pIC50 of N=C(CCl)NCCC[C@H](Nc1ccc([N+](=O)[O-])c2nonc12)C(=O)NCc1ccccc1 [ZD-E-1] . Value?
4.65

Recorded pIC50 for NCCCC[C@H](Nc1ccc([N+](=O)[O-])c2nonc12)C(=O)NCc1ccccc1 [ZD-F, NBD-Lys(HCl)-NBzl] , please?
< 4.00

May I ask what pIC50 has been recorded for O=C1NCCC[C@@H]1Nc1ccc([N+](=O)[O-])c2nonc12 [ZD-D, NBD-Orn(cycto)] ?
< 4.00

Entry N=C(CCl)NCCCC[C@H](Nc1ccc([N+](=O)[O-])c2nonc12)C(=O)NCc1ccccc1 [ZD-F-1, NBD-Lys(C1)-NBzl] : reported pIC50 = ?
4.41

Name the reported pIC50 value associated with the molecule CC(C)C[C@H](Nc1ccc([N+](=O)[O-])c2nonc12)C(=O)N[C@H](C(=O)OCc1ccccc1)C(C)C [ZD-B, NBD-LV-OBzl]
< 4.00

Using the record for CS(=O)(=O)NCCNc1ccc([N+](=O)[O-])c2nonc12 [ZD-C, NBD-N-(2-aminoethyl)methanesulfonamide] , report its pIC50.
< 4.00

----------
Tested on: A549 (human non-small cell lung cancer cells)
assayDetails: In vitro anti-tumor cell proliferation activity (MTT method), A549
Type: cell-based
protocolConditions: Homo sapiens; A549; 48 h; Mean ± SD; read-out: IC50 values of in vitro anti-cell proliferation activity
assayEndpoint: pIC50
Quick note: pIC50 values are minus log10 of concentrations in mol/L.

Recorded pIC50 for COc1cccc2c1C(=O)c1c(O)c3c(c(O)c1C2=O)C[C@@](O)(C(=O)CO)C[C@@H]3O[C@H]1C[C@H](N)[C@H](O)[C@H](C)O1 [DOX, doxorubicin, reference compound] with A549 (human non-small cell lung cancer cells), please?
6.64

----------
Tested on: MCF-7 (human breast cancer cells)
assayDetails: In vitro anti-tumor cell proliferation activity (MTT method), MCF-7
Assay type: cell-based
protocolConditions: MCF-7; 48 h; Mean ± SD; read-out: IC50 values of in vitro anti-cell proliferation activity
assayEndpoint: IC50 (µM)
Kindly provide the numeric value in µM only, without the unit symbol.

{"compound": "N=C(CCl)NCCCC[C@H](Nc1ccc([N+](=O)[O-])c2nonc12)C(=O)NCc1ccccc1 [ZD-F-1, NBD-Lys(C1)-NBzl]", "assayEndpoint": "IC50", "recordedMeasurement": 68.7}

Endpoint output: IC50 of N=C(CCl)NCCC[C@H](Nc1ccc([N+](=O)[O-])c2nonc12)C(=O)NCc1ccccc1 [ZD-E-1] . Value?
40.5
